Items are presented alongside their recorded normalized growth.
ASSAY_OVERVIEW: chemical genetic growth profiling, strain panel (AID 1159580);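 further: tested at 20 µM; growth read once vehicle control cultures reached saturation at 30 °C; 1 = growth at the plate median or of vehicle wells; lower values mean less growth of the strain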
COND: S. cerevisiae deletion strains, growth OD, locus YJL168C, strain set2, active compounds read low
About 2,000 (36%) of roughly 5,500 compounds were called active. Roughly 18% stayed inconclusive and do not appear here. The list shows a part of the results.
VALUE_TYPE: normalized growth

compound=COc1ccc2[nH]cc(CCN)c2c1 value_type="normalized growth" observed_value=0.999
compound=Cc1cc(C(C)(C)C)c(O)c(C(C)(C)C)c1 value_type="normalized growth" observed_value=0.996
compound="Cc1ccc(S(=O)(=O)NC(=O)NN2CC3CCCC3C2)cc1 (configuration not stated)" value_type="normalized growth" observed_value=1.01
compound=O=c1cc(CO)occ1O value_type="normalized growth" observed_value=1.04
compound=NC(N)=N/N=C/c1c(Cl)cccc1Cl value_type="normalized growth" observed_value=1.01
compound="NC(Cc1c[nH]c2ccccc12)C(=O)O (configuration not stated)" value_type="normalized growth" observed_value=0.99
compound=Nc1c2ccccc2nc2ccccc12 value_type="normalized growth" observed_value=0.972
compound=Nc1ccc(S(=O)(=O)Nc2cnc3ccccc3n2)cc1 value_type="normalized growth" observed_value=0.976
compound=COc1ccc2c(c1)c(CC(=O)O)c(C)n2C(=O)c1ccc(Cl)cc1 value_type="normalized growth" observed_value=0.979
compound=CC(C)(Sc1cc(C(C)(C)C)c(O)c(C(C)(C)C)c1)Sc1cc(C(C)(C)C)c(O)c(C(C)(C)C)c1 value_type="normalized growth" observed_value=1.02
compound=COc1ccc2c(c1)c(CC(=O)OCC(=O)O)c(C)n2C(=O)c1ccc(Cl)cc1 value_type="normalized growth" observed_value=1.01
compound=O=C1C(O)=C(O)C(=O)C(O)=C1O value_type="normalized growth" observed_value=0.996

Cited source for all entries: PubChem BioAssay AID1159580
